MIC values, listed per item
Tested on: Enterobacter aerogenes
run.description: Activity in vitro: minimum inhibitory concentration
Assay type: cell-based
protocol.conditions: Klebsiella aerogenes, Enterobacter aerogenes strain 1
Counter-ions that a name gives are not always drawn.
State the answer as a number, implicitly in µg/mL.

Ask: State the recorded MIC for this entry: "CO/N=C(\C(=O)N[C@@H]1C(=O)N2C(C(=O)[O-])=C(CSc3nnnn3C)CS[C@H]12)c1c[se]c(N)n1.[Na+]"
Result: 0.1

Ask: And then CO/N=C(\C(=O)N[C@@H]1C(=O)N2C(C(=O)O)=C(CSc3nc(=O)c(O)nn3C)CS[C@H]12)c1c[se]c(N)n1 [Product C, disodium salt] , what is it?
Result: 0.1

Ask: And then CO/N=C(\C(=O)N[C@@H]1C(=O)N2C(C(=O)O)=C(C)CS[C@H]12)c1c[se]c(N)n1 [Product F, sodium salt] , what is it?
Result: 0.2

---

Entries below carry reported MIC on Proteus inconstans.
Structures can show the parent of a compound that is named as a salt.

Here's what some known entries look like.
CC(C)(O/N=C(\C(=O)N[C@@H]1C(=O)N2C(C(=O)[O-])=C(C[n+]3ccccc3)CS[C@H]12)c1c[se]c(N)n1)C(=O)O [Product K]    0.05 µg/mL
CO/N=C(\C(=O)N[C@@H]1C(=O)N2C(C(=O)O)=C(C)CS[C@H]12)c1c[se]c(N)n1 [Product F, sodium salt]    ≤ 0.025 µg/mL
CO/N=C(\C(=O)N[C@@H]1C(=O)N2C(C(=O)O)=C(CSc3nnc(C)s3)CS[C@H]12)c1c[se]c(N)n1 [Product B, sodium salt]    0.025 µg/mL

Ask: State the recorded MIC for this entry: CC1=C(C(=O)[O-])N2C(=O)[C@@H](NC(=O)/C(=N\O)c3c[se]c(N)n3)[C@H]2SC1.[Na+] [Product M]
Result: 0.05 µg/mL

Ask: And then CC(=O)OCC1=C(C(=O)O)N2C(=O)[C@@H](NC(=O)/C(=N\OC(C)(C)C(=O)O)c3c[se]c(N)n3)[C@H]2SC1 [Product I, disodium salt] , what is it?
Result: 0.012 µg/mL

Ask: And then CO/N=C(\C(=O)N[C@@H]1C(=O)N2C(C(=O)O)=C(CSc3nc(=O)c(O)nn3C)C[S+]([O-])[C@H]12)c1c[se]c(N)n1 (stereo partly shown) [Product E, disodium salt] , what is it?
Result: 0.025 µg/mL

Ask: And then CO/N=C(\C(=O)N[C@@H]1C(=O)N2C(C(=O)O)=C(CSc3nc(=O)c(O)nn3C)CS[C@H]12)c1c[se]c(N)n1 [Product C, disodium salt] , what is it?
Result: 0.006 µg/mL

---

Test system: Enterobacter aerogenes
run.description: Activity in vitro: minimum inhibitory concentration
Type: cell-based
protocol.conditions: Klebsiella aerogenes, Enterobacter aerogenes strain 2
Counter-ions that a name gives are not always drawn.
assay.endpoint: MIC (µg/mL)
State the answer as a number, implicitly in µg/mL.

Here's what some known entries look like.
CC(C)(O/N=C(\C(=O)N[C@@H]1C(=O)N2C(C(=O)[O-])=C(C[n+]3ccccc3)CS[C@H]12)c1c[se]c(N)n1)C(=O)O [Product K]    0.2
CC(=O)OCC1=C(C(=O)O)N2C(=O)[C@@H](NC(=O)/C(=N\OC(C)(C)C(=O)O)c3c[se]c(N)n3)[C@H]2SC1 [Product I, disodium salt]    0.2

Ask: State the recorded MIC for this entry: CO/N=C(\C(=O)N[C@@H]1C(=O)N2C(C(=O)O)=C(CSc3nc(=O)c(O)nn3C)C[S+]([O-])[C@H]12)c1c[se]c(N)n1 (stereo partly drawn) [Product E, disodium salt]
Result: 0.05

---

ED50 values, listed per item
System: Escherichia coli
run.description: Activity in vivo: survival of intraperitoneally infected mice
protocol.conditions: sc, 96 h; mice infected i.p. with Escherichia coli; s.c. twice, 1 h and 3 h after infection; survival on 4th day; read-out: CD50 (dosage at which 50% of the animals survive)
Structures can show the parent of a compound that is named as a salt.
State the answer as a number, implicitly in mg/kg.

Here's what some known entries look like.
CO/N=C(\C(=O)N[C@@H]1C(=O)N2C(C(=O)O)=C(CSc3nnc(C)s3)CS[C@H]12)c1c[se]c(N)n1 [Product B, sodium salt]    0.006
CC1=C(C(=O)[O-])N2C(=O)[C@@H](NC(=O)/C(=N\O)c3c[se]c(N)n3)[C@H]2SC1.[Na+]    1
CO/N=C(\C(=O)N[C@@H]1C(=O)N2C(C(=O)O)=C(C)CS[C@H]12)c1c[se]c(N)n1 [Product F, sodium salt]    0.06

Ask: Missing value: ED50, Escherichia coli, entry "CO/N=C(\C(=O)N[C@@H]1C(=O)N2C(C(=O)OCOC(=O)C(C)(C)C)=C(C)CS[C@H]12)c1c[se]c(N)n1" . Fill in?
Result: 0.11

---

Tested on: Klebsiella pseumoniae
run.description: Activity in vitro: minimum inhibitory concentration
Assay type: cell-based
protocol.conditions: Klebsiella pseumoniae strain 3
Counter-ions that a name gives are not always drawn.
assay.endpoint: log10 MIC (log10 of the value in µg/mL)
Transform log10 | Measure MIC | Unit µg/mL

Here's what some known entries look like.
CC1=C(C(=O)[O-])N2C(=O)[C@@H](NC(=O)/C(=N\O)c3c[se]c(N)n3)[C@H]2SC1.[Na+]    -0.40
CO/N=C(\C(=O)N[C@@H]1C(=O)N2C(C(=O)O)=C(CSc3nnc(C)s3)CS[C@H]12)c1c[se]c(N)n1 [Product B, sodium salt]    -0.70
CO/N=C(\C(=O)N[C@@H]1C(=O)N2C(C(=O)O)=C(CSc3nc(=O)c(O)nn3C)CS[C@H]12)c1c[se]c(N)n1 [Product C, disodium salt]    -1.00
CO/N=C(\C(=O)N[C@@H]1C(=O)N2C(C(=O)O)=C(C)CS[C@H]12)c1c[se]c(N)n1 [Product F, sodium salt]    -1.30
CO/N=C(\C(=O)N[C@@H]1C(=O)N2C(C(=O)O)=C(CSc3nc(=O)c(O)nn3C)C[S+]([O-])[C@H]12)c1c[se]c(N)n1 (stereo partly shown) [Product E, disodium salt]    -1.00
CC(=O)OCC1=C(C(=O)O)N2C(=O)[C@@H](NC(=O)/C(=N\OC(C)(C)C(=O)O)c3c[se]c(N)n3)[C@H]2SC1 [Product I, disodium salt]    -0.10

Then there is this compound:
Ask: State the recorded log10 MIC for this entry: "CO/N=C(\C(=O)N[C@@H]1C(=O)N2C(C(=O)[O-])=C(CSc3n[nH]c(=O)c(=O)n3C)CS[C@H]12)c1c[se]c(N)n1.[Na+]"
Result: -1.30

---

MIC values, listed per item
System: Klebsiella pseumoniae
run.description: Activity in vitro: minimum inhibitory concentration
Format: cell-based
protocol.conditions: Klebsiella pseumoniae strain 3

Here's what some known entries look like.
CO/N=C(\C(=O)N[C@@H]1C(=O)N2C(C(=O)[O-])=C(CSc3nnnn3C)CS[C@H]12)c1c[se]c(N)n1.[Na+]    0.1 µg/mL
CC(=O)OCC1=C(C(=O)[O-])N2C(=O)[C@@H](NC(=O)/C(=N\O)c3c[se]c(N)n3)[C@H]2SC1.[Na+]    ≤ 0.025 µg/mL

Then there is this molecule:
Ask: Missing value: MIC, Klebsiella pseumoniae, entry "CC(C)(O/N=C(\C(=O)N[C@@H]1C(=O)N2C(C(=O)[O-])=C(C[n+]3ccccc3)CS[C@H]12)c1c[se]c(N)n1)C(=O)O" . Fill in?
Result: 0.8 µg/mL

---

MIC values, listed per item
Tested on: Enterobacter cloacae
run.description: Activity in vitro: minimum inhibitory concentration
Format: cell-based
protocol.conditions: Enterobacter cloacae strain 3
Where a name gives a salt, the structure may show the parent alone.
State the answer as a number, implicitly in µg/mL.

Here's what some known entries look like.
CO/N=C(\C(=O)N[C@@H]1C(=O)N2C(C(=O)O)=C(CSc3nnc(C)s3)CS[C@H]12)c1c[se]c(N)n1 [Product B, sodium salt]    50
CO/N=C(\C(=O)N[C@@H]1C(=O)N2C(C(=O)[O-])=C(CSc3n[nH]c(=O)c(=O)n3C)CS[C@H]12)c1c[se]c(N)n1.[Na+]    50

Then there is this molecule:
Ask: State the recorded MIC for this entry: CO/N=C(\C(=O)N[C@@H]1C(=O)N2C(C(=O)O)=C(CSc3nc(=O)c(O)nn3C)C[S+]([O-])[C@H]12)c1c[se]c(N)n1 (stereo partly drawn) [Product E, disodium salt]
Result: 1.6

---

Test system: Pseudomonas aeruginosa
run.description: Activity in vivo: survival of intraperitoneally infected mice
protocol.conditions: sc, 96 h; mice infected i.p. with Pseudomonas aeruginosa; s.c. three times, 1 h, 3 h and 5 h after infection; survival on 4th day; read-out: CD50 (dosage at which 50% of the animals survive)
Structures can show the parent of a compound that is named as a salt.
ED50 values, listed per item
State the answer as a number, implicitly in mg/kg.

CC(=O)OCC1=C(C(=O)O)N2C(=O)[C@@H](NC(=O)/C(=N\OC(C)(C)C(=O)O)c3c[se]c(N)n3)[C@H]2SC1 [Product I, disodium salt]    23
CO/N=C(\C(=O)N[C@@H]1C(=O)N2C(C(=O)O)=C(CSc3nnc(C)s3)CS[C@H]12)c1c[se]c(N)n1 [Product B, sodium salt]    134
CC(C)(O/N=C(\C(=O)N[C@@H]1C(=O)N2C(C(=O)[O-])=C(C[n+]3ccccc3)CS[C@H]12)c1c[se]c(N)n1)C(=O)O    1.1
CO/N=C(\C(=O)N[C@@H]1C(=O)N2C(C(=O)O)=C(CSc3nc(=O)c(O)nn3C)CS[C@H]12)c1c[se]c(N)n1 [Product C, disodium salt]    14
CO/N=C(\C(=O)N[C@@H]1C(=O)N2C(C(=O)[O-])=C(CSc3nnnn3C)CS[C@H]12)c1c[se]c(N)n1.[Na+]    39
CO/N=C(\C(=O)N[C@@H]1C(=O)N2C(C(=O)O)=C(COC(C)=O)CS[C@H]12)c1c[se]c(N)n1 [Product D, disodium salt]    35

Ask: State the recorded ED50 for this entry: CO/N=C(\C(=O)N[C@@H]1C(=O)N2C(C(=O)O)=C(CSc3nc(=O)c(O)nn3C)C[S+]([O-])[C@H]12)c1c[se]c(N)n1 (stereo partly shown) [Product E, disodium salt]
Result: 75
